// data source = patent US5618812A

The following compounds are listed with their measured pIC50 values.
- target-system: CCK-A (Rattus norvegicus)
- Sequence (P30551 whole entry): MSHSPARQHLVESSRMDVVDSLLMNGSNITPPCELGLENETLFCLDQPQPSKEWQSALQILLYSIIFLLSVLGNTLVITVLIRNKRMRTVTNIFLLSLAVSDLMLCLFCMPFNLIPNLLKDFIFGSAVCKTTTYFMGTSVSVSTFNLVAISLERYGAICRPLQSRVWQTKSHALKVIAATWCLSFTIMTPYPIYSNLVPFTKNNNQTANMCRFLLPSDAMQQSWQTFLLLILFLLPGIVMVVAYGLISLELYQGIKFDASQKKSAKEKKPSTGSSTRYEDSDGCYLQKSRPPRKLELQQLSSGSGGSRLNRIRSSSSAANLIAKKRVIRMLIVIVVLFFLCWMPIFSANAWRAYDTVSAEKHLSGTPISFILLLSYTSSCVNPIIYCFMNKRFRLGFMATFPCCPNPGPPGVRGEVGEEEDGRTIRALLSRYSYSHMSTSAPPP
- test-protocol: biochemical
- Assay type: binding
- particulars: CCK RECEPTOR BINDING RESULTS IC50 125I-CCK Pancreas, rat pancreas (CCK-A), 125I-CCK
pIC50: −log10 of the molar value. Counter-ions that a name gives are not always drawn.
assay-endpoint: pIC50

INSERT INTO measurements (compound, reading) VALUES
  ('CN1C(=O)C(NC(=O)Nc2cccc(F)c2)N=C(N2CC3CCC(CC3)C2)c2ccccc21 (single isomer, unassigned; (-)) [Example 36, Hydrochloride]', 5.85),
  ('Cc1ccc(NC(=O)NC2N=C(N3CC4CCC(CC4)C3)c3ccccc3N(C)C2=O)cc1F (single isomer, unassigned; (+)) [Example 46, Hydrochloride]', 7.63),
  ('Cc1cccc(NC(=O)NC2N=C(N3CC4CCC(CC4)C3)c3ccccc3N(C)C2=O)c1 (single isomer, unassigned; (+)) [Example 34, Hydrochloride]', 8.19),
  ('CN1C(=O)C(NC(=O)c2cc3ccccc3[nH]2)N=C(N2CC3CCC(CC3)C2)c2ccccc21 (single isomer, unassigned; (-)) [Example 88, hydrochloride]', 6.41),
  ('Cc1cc(NC(=O)NC2N=C(N3CC4CCC(CC4)C3)c3ccccc3N(C)C2=O)ccc1F (single isomer, unassigned; (-)) [Example 53, Hydrochloride]', 5.42),
  ('Cc1cccc(NC(=O)NC2N=C(N3CC4CCC(CC4)C3)c3ccccc3N(C)C2=O)c1 (racemic) [Example 31]', 7.70);
